# METHOD_SUMMARY: Study KAR5585-101 Part 1 (SAD): plasma pharmacokinetics after a single oral dose of KAR5585, fasting and fed (incl. dose proportionality and food effect)
# CONDITION_CONTEXT: human, plasma, po, 2000 mg, Cmax, KAR5417 after 2000 mg KAR5585 single oral, fasted, Cohort 6; Geo. Mean
REPORTED_PROPERTY: Cmax (ng/mL)
// units = ng/mL; emit number, no label

Identify Cmax associated with the compound Nc1nc(O[C@H](c2ccc(Cl)cc2-c2ccccc2)C(F)(F)F)cc(N2CCC3(CC2)CN[C@H](C(=O)O)C3)n1
1030

###

# METHOD_SUMMARY: Study KAR5585-101 Part 1 (SAD): plasma pharmacokinetics after a single oral dose of KAR5585, fasting and fed (incl. dose proportionality and food effect)
# CONDITION_CONTEXT: human, plasma, po, 700 mg, AUC0-∞, KAR5417 after 700 mg KAR5585 single oral, fasted, Cohort 4; Mean
REPORTED_PROPERTY: AUC(0-inf) (ng·h/mL)
// units = ng·h/mL; emit number, no label

Identify AUC(0-inf) associated with the compound Nc1nc(O[C@H](c2ccc(Cl)cc2-c2ccccc2)C(F)(F)F)cc(N2CCC3(CC2)CN[C@H](C(=O)O)C3)n1
6020

###

# METHOD_SUMMARY: Study KAR5585-101 Part 1 (SAD): plasma pharmacokinetics after a single oral dose of KAR5585, fasting and fed (incl. dose proportionality and food effect)
# CONDITION_CONTEXT: human, plasma, po, 400 mg, AUC0-tau, Geometric Mean, Cohort 3A (Fasting), 400 mg KAR5585 single oral dose, fasting
Kindly state AUC for each of the entries shown.
// units = ng·h/mL; emit number, no label

Identify AUC associated with the compound CCOC(=O)[C@@H]1CC2(CCN(c3cc(O[C@H](c4ccc(Cl)cc4-c4ccccc4)C(F)(F)F)nc(N)n3)CC2)CN1
176

Identify AUC associated with the compound Nc1nc(O[C@H](c2ccc(Cl)cc2-c2ccccc2)C(F)(F)F)cc(N2CCC3(CC2)CN[C@H](C(=O)O)C3)n1
3120

###

# METHOD_SUMMARY: Study KAR5585-101 Part 1 (SAD): plasma pharmacokinetics after a single oral dose of KAR5585, fasting and fed (incl. dose proportionality and food effect)
# CONDITION_CONTEXT: human, plasma, po, 400 mg, AUC0-24, KAR5417 after 400 mg KAR5585 single oral, fed, Cohort 3B; Geo. Mean
REPORTED_PROPERTY: AUC(0-t) (ng·h/mL)
// units = ng·h/mL; emit number, no label

Identify AUC(0-t) associated with the compound Nc1nc(O[C@H](c2ccc(Cl)cc2-c2ccccc2)C(F)(F)F)cc(N2CCC3(CC2)CN[C@H](C(=O)O)C3)n1 [KAR5417]
5370

###

# METHOD_SUMMARY: Study KAR5585-101 Part 1 (SAD): plasma pharmacokinetics after a single oral dose of KAR5585, fasting and fed (incl. dose proportionality and food effect)
# CONDITION_CONTEXT: human, plasma, po, 100 mg, C12, KAR5417 after 100 mg KAR5585 single oral, fasted, Cohort 1; Geo. Mean
REPORTED_PROPERTY: concentration at 12 h (ng/mL)
// units = ng/mL; emit number, no label

Identify concentration at 12 h associated with the compound Nc1nc(O[C@H](c2ccc(Cl)cc2-c2ccccc2)C(F)(F)F)cc(N2CCC3(CC2)CN[C@H](C(=O)O)C3)n1
22.5

All figures here come from patent US20240041877A1.
